Exercise: for every item that follows, state its recorded Yap1 mRNA, % UTC.
# System: Yap1 mRNA
# Assay method text: Dose-dependent inhibition of human Yap1 in A-431 cells (Example 8, 10,000 cells per well, RTS4814)
# Format: cell-based
# Condition parameters: 31.3 nM; A-431 cells, 10,000 cells per well, free uptake, approximately 48 hours, RTS4814
Strand notation (5' to 3'): a small letter for the sugar, then the base; units joined by * are phosphorothioate-linked, units joined directly phosphodiester-linked; [ ] holds rarer units or linkages, { } end groups; capitals alone tell only the bases. k = constrained ethyl (cEt); [5mC] = 5-methylcytosine; d = 2'-deoxy (DNA)

Enquiry: Could you share which Yap1 mRNA, % UTC value was measured for 1074630 (antisense kA*kG*kA*dG*dA*dT*dT*dT*dT*dA*dT*dG*d[5mC]*k[5mC]*kT*kG) [compound 1074630] ?
Return: 57 % UTC

Enquiry: Please give the result for 1076017 (k[5mC]*kT*kA*dA*dT*dA*dG*dG*dA*dT*dG*dG*dA*kT*kT*k[5mC]; antisense) [compound 1076017] too.
Return: 59 % UTC

Enquiry: Next: 1076293 (kG*k[5mC]*kT*dT*dA*dT*dT*dA*dT*dT*dG*dA*dG*kT*kT*kA; antisense) [compound 1076293]
Return: 49 % UTC

Data provenance is patent US11214803B2.
